Target: D1R (Homo sapiens, UniProt P21728)
Sequence (P21728 whole entry): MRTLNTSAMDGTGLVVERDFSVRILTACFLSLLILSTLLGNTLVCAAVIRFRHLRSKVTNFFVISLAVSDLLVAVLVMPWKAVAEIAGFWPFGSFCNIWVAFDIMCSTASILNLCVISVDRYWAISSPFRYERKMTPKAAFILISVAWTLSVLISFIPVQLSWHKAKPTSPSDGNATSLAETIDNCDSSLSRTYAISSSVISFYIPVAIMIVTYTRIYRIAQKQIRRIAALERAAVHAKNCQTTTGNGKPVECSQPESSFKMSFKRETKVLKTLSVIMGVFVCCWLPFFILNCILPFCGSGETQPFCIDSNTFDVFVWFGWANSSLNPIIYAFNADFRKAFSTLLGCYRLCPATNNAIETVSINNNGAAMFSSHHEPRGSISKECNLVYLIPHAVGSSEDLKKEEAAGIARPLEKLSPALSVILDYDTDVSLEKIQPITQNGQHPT
// reported Ki per item

COMPOUND	Ki (nM)
COCC[N+]1=C(/C=C/C=C2N(CCCCCC(=O)NCCOCCn3cc(CNC(=O)CCCCS(=O)(=O)Nc4ccc(C5CN(C)CCc6cc(Cl)c(O)cc65)cc4)nn3)c3ccc(S(=O)(=O)[O-])cc3C2(C)CCCS(=O)(=O)O)C(C)(CCCS(=O)(=O)O)c2cc(S(=O)(=O)O)ccc21 (centres unmarked) [compound 26]	288
CN1CCc2cc(Cl)c(O)cc2C(c2ccc(NS(=O)(=O)CCCCC(=O)NCc3cn(CCOCCOCCNC(=O)c4ccc(-c5c6ccc(N(C)C)cc6[o+]c6cc(N(C)C)ccc56)c(C(=O)[O-])c4)nn3)cc2)C1 (racemic) [compound 27]	9.55

###

// reported pKi per item
Molecular target: D1R (Homo sapiens, UniProt P21728)
Assay: radioligand competition binding, cell homogenates
pKi: −log10 of the molar value.
RECORDED ENDPOINT: pKi

COMPOUND	TEST VALUE
COCC[N+]1=C(/C=C/C=C2N(CCCCCC(=O)NCCCS(=O)(=O)Nc3ccc(C4CN(C)CCc5cc(Cl)c(O)cc54)cc3)c3ccc(S(=O)(=O)[O-])cc3C2(C)CCCS(=O)(=O)O)C(C)(CCCS(=O)(=O)O)c2cc(S(=O)(=O)O)ccc21 (stereo not drawn)	7.99
CN1CCc2cc(Cl)c(O)cc2C(c2ccc(NS(=O)(=O)CCCNC(=O)c3ccc(-c4c5ccc(N(C)C)cc5[o+]c5cc(N(C)C)ccc45)c(C(=O)[O-])c3)cc2)C1 (racemic)	6.40
CN1CCc2cc(Cl)c(O)cc2C(c2ccc(NS(=O)(=O)CCCCC(=O)NCc3cn(CCOCCNC(=O)c4ccc(-c5c6ccc(N(C)C)cc6[o+]c6cc(N(C)C)ccc56)c(C(=O)[O-])c4)nn3)cc2)C1 (racemic)	8.34
